Measured values drawn from ChEMBL document CHEMBL3885861 for this set.

species: Rattus norvegicus; test: Open TG-GATES - Regimen: Single; type: toxicity, organism-based, Sprague-Dawley; set-up: regimen Single, gender Male, age 6 weeks; details: in vivo, po, 0 mg/kg, 3 h, tissue Blood, route gavage, dose level Control
Quick rule: Mono of at least 3% means Yes, below that means No.

MOLECULE: CNC(=C[N+](=O)[O-])NCCSCc1ccc(CN(C)C)o1 [RANITIDINE]
CLASS LABEL: No

In plain terms: is recorded Mono at least 3% for Brc1ccccc1 [BROMOBENZENE] ? Yes

Dear colleague, could you confirm whether COC(=O)C1=C(C)NC(C)=C(C(=O)OC)C1c1ccccc1[N+](=O)[O-] [NIFEDIPINE] has Mono at or above 3%? No

hey, is Mono for this one >= 3%? O=C(OC[C@H]1O[C@@H](OC(=O)c2cc(O)c(O)c(OC(=O)c3cc(O)c(O)c(O)c3)c2)[C@H](OC(=O)c2cc(O)c(O)c(OC(=O)c3cc(O)c(O)c(O)c3)c2)[C@@H](OC(=O)c2cc(O)c(O)c(OC(=O)c3cc(O)c(O)c(O)c3)c2)[C@@H]1OC(=O)c1cc(O)c(O)c(OC(=O)c2cc(O)c(O)c(O)c2)c1)c1cc(O)c(O)c(OC(=O)c2cc(O)c(O)c(O)c2)c1 [TANNIC ACID] Yes

Tell me whether Mono is at least 3% here: Nc1c2c(nc3ccccc13)CCCC2 [TACRINE] No

Evaluate NC1=NC(=O)C(c2ccccc2)O1 (centres undefined) [PEMOLINE] : Mono at minimum 3%? Yes

Please tell me: is the molecule CCCc1cc(=O)[nH]c(=S)[nH]1 [PROPYLTHIOURACIL] at or over 3% in terms of Mono? Yes

Is the recorded value of Mono equal to or greater than 3% for this molecule? CN/C(=N/CCSCc1nc[nH]c1C)NC#N [CIMETIDINE] Yes

Test whether the molecule CC(C)NNC(=O)c1ccncc1 [IPRONIAZID] records Mono of 3% or higher. No

Is Mono for CN(C)CCC(c1ccc(Cl)cc1)c1ccccn1 (centres undefined) [CHLORPHENIRAMINE] at or above 3%? No

* * *

species: Rattus norvegicus; test: Open TG-GATES - Regimen: Single; format: toxicity, organism-based, Sprague-Dawley; set-up: regimen Single, gender Male, age 6 weeks; conditions: in vivo, po, 1000 mg/kg, 6 h, tissue Plasma, route gavage, dose level High
OBSERVATION TYPE: TC (mg/dL)
Dear colleague, please return just the value in mg/dL, with no unit written.

As a guide, the following entries are already answered.
MOLECULE: Cc1nnc2n1-c1ccc(Cl)cc1C(c1ccccc1Cl)=NC2 [TRIAZOLAM]
TC (mg/dL): 85.4
//
MOLECULE: O=C(OC[C@H]1O[C@@H](OC(=O)c2cc(O)c(O)c(OC(=O)c3cc(O)c(O)c(O)c3)c2)[C@H](OC(=O)c2cc(O)c(O)c(OC(=O)c3cc(O)c(O)c(O)c3)c2)[C@@H](OC(=O)c2cc(O)c(O)c(OC(=O)c3cc(O)c(O)c(O)c3)c2)[C@@H]1OC(=O)c1cc(O)c(O)c(OC(=O)c2cc(O)c(O)c(O)c2)c1)c1cc(O)c(O)c(OC(=O)c2cc(O)c(O)c(O)c2)c1 [TANNIC ACID]
TC (mg/dL): 65.2
//
MOLECULE: CNC(=C[N+](=O)[O-])NCCSCc1ccc(CN(C)C)o1 [RANITIDINE]
TC (mg/dL): 80.8

Specify measured TC for CN/C(=N/CCSCc1nc[nH]c1C)NC#N [CIMETIDINE] . 75.6

Answer with the recorded TC of COC(=O)C1=C(C)NC(C)=C(C(=O)OC)C1c1ccccc1[N+](=O)[O-] [NIFEDIPINE] only. 90.2

* * *

organism: Rattus norvegicus; assay: Open TG-GATES - Regimen: Daily Repeat; type: toxicity, organism-based, Sprague-Dawley; set-up: regimen Daily Repeat, gender Male, age 6 weeks; conditions: in vivo, po, 300 mg/kg, […], tissue Blood, route gavage, dose level Middle, time 14 day
Listed molecules paired with reported WBC
Give your result in x10_2/uL as a bare value.

Example cases with answers are listed next.
MOLECULE SMILES: CCOc1ccc(NC(C)=O)cc1
WBC / x10_2/uL: 128

MOLECULE SMILES: Cc1nnc2n1-c1ccc(Cl)cc1C(c1ccccc1Cl)=NC2
WBC / x10_2/uL: 121.8

MOLECULE SMILES: COC(=O)C1=C(C)NC(C)=C(C(=O)OC)C1c1ccccc1[N+](=O)[O-]
WBC / x10_2/uL: 97.5

# evaluate next
Quickly give me recorded WBC for CNC(=C[N+](=O)[O-])NCCSCc1ccc(CN(C)C)o1 111.2

* * *

Parameter: TC. Scope: all listed entries.
species on record: Rattus norvegicus; test: Open TG-GATES - Regimen: Single; format: toxicity, organism-based, Sprague-Dawley; set-up: regimen Single, gender Male, age 6 weeks; conditions: in vivo, po, 0 mg/kg, 6 h, tissue Plasma, route gavage, dose level Control
Your answer is read as mg/dL, so omit the unit and give the number.

MOLECULE: CN/C(=N/CCSCc1nc[nH]c1C)NC#N [CIMETIDINE]
VALUE UNIT: mg/dL
TC: 81.8

Return value of TC for input CNC(=C[N+](=O)[O-])NCCSCc1ccc(CN(C)C)o1 [RANITIDINE] , no commentary. 84.2

Return value of TC for input CC(C)NNC(=O)c1ccncc1 [IPRONIAZID] , no commentary. 75.6

Fill in reported TC for this entry: Cc1nnc2n1-c1ccc(Cl)cc1C(c1ccccc1Cl)=NC2 [TRIAZOLAM] 75.4

Please give the documented TC of CS(=O)(=O)O.Cc1ccc(NC(=O)c2ccc(CN3CCN(C)CC3)cc2)cc1Nc1nccc(-c2cccnc2)n1 [IMATINIB MESYLATE] 86.4

* * *

species: Rattus norvegicus; assay: Open TG-GATES - Regimen: Single; assay type: toxicity, organism-based, Sprague-Dawley; set-up: regimen Single, gender Male, age 6 weeks; conditions: in vivo, po, 100 mg/kg, 6 h, tissue Blood, route gavage, dose level Low
Each entry below carries its reported Hb.
The reply should consist of the numeric value with the unit placed after it.

Examples with answers:
COMPOUND: Cc1nnc2n1-c1ccc(Cl)cc1C(c1ccccc1Cl)=NC2 [TRIAZOLAM]
Hb: 13.9 g/dL
//
COMPOUND: CNC(=C[N+](=O)[O-])NCCSCc1ccc(CN(C)C)o1 [RANITIDINE]
Hb: 12.9 g/dL
//
COMPOUND: CN/C(=N/CCSCc1nc[nH]c1C)NC#N [CIMETIDINE]
Hb: 13.2 g/dL
//
COMPOUND: O=C(OC[C@H]1O[C@@H](OC(=O)c2cc(O)c(O)c(OC(=O)c3cc(O)c(O)c(O)c3)c2)[C@H](OC(=O)c2cc(O)c(O)c(OC(=O)c3cc(O)c(O)c(O)c3)c2)[C@@H](OC(=O)c2cc(O)c(O)c(OC(=O)c3cc(O)c(O)c(O)c3)c2)[C@@H]1OC(=O)c1cc(O)c(O)c(OC(=O)c2cc(O)c(O)c(O)c2)c1)c1cc(O)c(O)c(OC(=O)c2cc(O)c(O)c(O)c2)c1 [TANNIC ACID]
Hb: 12.7 g/dL

Shift focus to the following entry.
Answer with the recorded Hb of COC(=O)C1=C(C)NC(C)=C(C(=O)OC)C1c1ccccc1[N+](=O)[O-] [NIFEDIPINE] only. 12.8 g/dL

* * *

species: Rattus norvegicus; assay: Open TG-GATES - Regimen: Daily Repeat; assay type: toxicity, organism-based, Sprague-Dawley; set-up: regimen Daily Repeat, gender Male, age 6 weeks; conditions: in vivo, po, 0 mg/kg, 72 h, tissue Plasma, route gavage, dose level Control, time 3 day
OBSERVATION TYPE: CRE (mg/dL)
Answer in mg/dL, number only, no unit symbol.

Quote CRE reported for Brc1ccccc1 [BROMOBENZENE] please. 0.2

Given the molecule CCOc1ccc(NC(C)=O)cc1 [PHENACETIN] , write its reported CRE. 0.2

* * *

Listing of entries alongside the reported KIDNEY_TOTAL.
species on record: Rattus norvegicus; assay: Open TG-GATES - Regimen: Single; type: toxicity, organism-based, Sprague-Dawley; set-up: regimen Single, gender Male, age 6 weeks; settings: in vivo, po, 100 mg/kg, 9 h, tissue Kidney, route gavage, dose level Low
The reply should be a number in g, with the unit left off.

Provide one value: measured KIDNEY_TOTAL of COC(=O)C1=C(C)NC(C)=C(C(=O)OC)C1c1ccccc1[N+](=O)[O-] [NIFEDIPINE] 1.7

Query KIDNEY_TOTAL for O=C(OC[C@H]1O[C@@H](OC(=O)c2cc(O)c(O)c(OC(=O)c3cc(O)c(O)c(O)c3)c2)[C@H](OC(=O)c2cc(O)c(O)c(OC(=O)c3cc(O)c(O)c(O)c3)c2)[C@@H](OC(=O)c2cc(O)c(O)c(OC(=O)c3cc(O)c(O)c(O)c3)c2)[C@@H]1OC(=O)c1cc(O)c(O)c(OC(=O)c2cc(O)c(O)c(O)c2)c1)c1cc(O)c(O)c(OC(=O)c2cc(O)c(O)c(O)c2)c1 [TANNIC ACID] 1.6
